Data provenance is paper PMC11124822.

# melting point values compiled below

What melting point value was documented for this compound, O=C1Nc2ccccc2C1=Cc1ccc(OCc2ccccc2)cc1 (mixture of isomers) [Compound 5a] ?
220 to 223 °C

What melting point value was documented for this compound, O=C1Nc2ccccc2C1=Cc1ccc(OCc2ccccn2)cc1 (mixture of isomers) [Compound 5e] ?
221 to 224 °C

What melting point value was documented for this compound, O=C1Nc2ccc(F)cc2C1=Cc1ccc(OCc2ccccn2)cc1 (mixture of isomers) [Compound 5f] ?
226 to 228 °C

What melting point value was documented for this compound, O=C1Nc2ccc(F)cc2C1=Cc1ccc(OCc2cccnc2)cc1 (mixture of isomers) [Compound 5j] ?
187 to 189 °C
